Molecular target: human recombinant ETB receptors (Homo sapiens)
Construct: expressed in transfected cells; host or cells: CHO cells (microsomal membranes)
Sequence (P24530 27-442): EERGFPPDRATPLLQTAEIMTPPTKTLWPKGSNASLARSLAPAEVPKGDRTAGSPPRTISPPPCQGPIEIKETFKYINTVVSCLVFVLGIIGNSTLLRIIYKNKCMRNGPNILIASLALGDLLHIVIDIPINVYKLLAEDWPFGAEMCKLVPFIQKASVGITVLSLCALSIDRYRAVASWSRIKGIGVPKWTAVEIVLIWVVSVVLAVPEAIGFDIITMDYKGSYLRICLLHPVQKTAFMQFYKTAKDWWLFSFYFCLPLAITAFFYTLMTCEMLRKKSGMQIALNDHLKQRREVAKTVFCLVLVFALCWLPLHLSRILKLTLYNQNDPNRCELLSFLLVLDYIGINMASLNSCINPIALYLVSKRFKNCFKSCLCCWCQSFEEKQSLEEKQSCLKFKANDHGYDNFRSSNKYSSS
Experiment: Inhibition of endothelin binding to membranes from CHO cells carrying human ET receptors (ETB)
Settings: read-out: IC50 ETB
pIC50 values by entry
Field pIC50 (float): negative decimal logarithm of the concentration in molar.

COc1cc(CN2C(=O)CN[C@](c3ccccc3)([C@H](Oc3nc(OC)cc(OC)n3)C(=O)O)c3ccccc32)cc(OC)c1 (racemic) | 7.28

# query: pIC50 | item Cc1cc(C)nc(O[C@H](C(=O)O)[C@@]2(c3cccc(-c4ccccc4)c3)NCC(=O)N(Cc3c(F)ccc(F)c3F)c3ccccc32)n1 (racemic) | system: human recombinant ETB receptors (Homo sapiens)
7.54

# query: pIC50 | item Cc1cc(C)nc(O[C@H](C(=O)O)[C@@]2(c3ccccc3)NCC(=O)N(C)c3ccccc32)n1 (racemic) | system: human recombinant ETB receptors (Homo sapiens)
6.62

# query: pIC50 | item Cc1cc(C)nc(O[C@H](C(=O)O)[C@@]2(c3ccccc3)NCC(=O)N(CCc3cn(C)c4ccccc34)c3ccccc32)n1 (racemic) | system: human recombinant ETB receptors (Homo sapiens)
8.40

# query: pIC50 | item COc1ccc(CN2C(=O)CN[C@](c3ccc(F)c(C)c3)([C@H](Oc3nc(C)cc(C)n3)C(=O)O)c3ccccc32)cc1 (racemic) | system: human recombinant ETB receptors (Homo sapiens)
7.41

# query: pIC50 | item Cc1cc(C)nc(O[C@H](C(=O)O)[C@@]2(c3ccccc3)NCC(=O)N(Cc3c(F)cc(F)cc3F)c3ccccc32)n1 (racemic) | system: human recombinant ETB receptors (Homo sapiens)
7.38

# query: pIC50 | item CCCCc1ccc(CN2C(=O)CN[C@](c3cccc(CCCC)c3)([C@H](Oc3nc(C)cc(C)n3)C(=O)O)c3ccccc32)cc1 (racemic) | system: human recombinant ETB receptors (Homo sapiens)
7.92

# query: pIC50 | item Cc1cc(C)nc(O[C@H](C(=O)O)[C@@]2(c3ccccc3)NCC(=O)N(CC(=O)O)c3ccccc32)n1 (racemic) | system: human recombinant ETB receptors (Homo sapiens)
6.29

# query: pIC50 | item Cc1cc(C)nc(O[C@H](C(=O)O)[C@]2(c3ccccc3)c3ccccc3N(Cc3c(F)cc(F)cc3F)C(=O)CN2C)n1 (racemic) | system: human recombinant ETB receptors (Homo sapiens)
6.45

meta.source: patent US7238685B2
